study system: SIK2 (Homo sapiens)
assay notes: SIK2 Enzymatic Assay High Version 2 (High ATP)
Type: biochemical
condition description: enzyme 6 nM, 6 mM ATP and 400 μM HDAC5tide (each 2× final concentration); 30 minutes pre-incubation, 2 hours; ADP-Glo Max luminescence; read-out: SIK2 high ATP IC50 (μM) (Test Example 2)
Criterion: IC50 strictly less than 0.02 µM. Met: y. Not met: n.

Look over these answered cases.
[
  {
    "molecule": "Cc1cc(Nc2cc3cc(-c4cc(OC(F)F)ncc4OCC(C)(C)C#N)ccn3n2)ncn1 [Example 685]",
    "class assignment": "n"
  },
  {
    "molecule": "Cc1cc(-c2ccn3nc(Nc4cc(C)c(=O)n(C)n4)cc3c2)c(OC[C@](C)(N)C(F)(F)F)cn1 (single isomer, unassigned) [Example 312]",
    "class assignment": "y"
  }
]

Prompt: Consider CCn1nc(Nc2cc3cc(-c4cc(C)ncc4OC[C@H]4OCC[C@@H]4O)ccn3n2)cc(C)c1=O [Example 293] . Does its IC50 lie strictly below 0.02 µM?
Response: y

Prompt: Input Cc1cc(-c2ccn3nc(Nc4cc(C)nc(C)n4)cc3c2)c(OC[C@@H]2CCC3(CCCC3)O2)cn1 (single isomer, unassigned) [Example 230] ; condition: IC50 strictly below 0.02 µM. Does it hold?
Response: n

Prompt: # strict comparison: is reported IC50 < 0.02 µM? input = Cc1cc(-c2ccn3nc(Nc4cc(C)nc(C(=O)NCC(C)(C)O)n4)cc3c2)c(OCC(C)(C)O)cn1 [Example 647]
Response: n

Prompt: hey, is IC50 for Cc1cc(-c2ccn3nc(Nc4cc(C)c(=O)n(CCOC(F)F)n4)cc3c2)c(OC[C@H]2OCC[C@@H]2O)cn1 [Example 296] lower than 0.02 µM or not?
Response: y

Prompt: Find out if reported IC50 for Cc1cc(-c2ccn3nc(NC(=O)C4CC4)cc3c2)c(OC[C@]23C[C@H](CO2)N(C)C3)cn1 [Example 249] is less than 0.02 µM
Response: n

Prompt: State whether 0.02 µM exceeds IC50 recorded for Cc1cc(-c2ccn3nc(Nc4cc(C)nc(C)n4)cc3c2)c(OCC2(C(N)=O)CC2)cn1 [Example 313] .
Response: y

Prompt: Is the reported IC50 for Cc1cc(-c2ccn3nc(Nc4cnccn4)cc3c2)c(OC[C@@H]2CNCCO2)cn1 [Example 431] strictly below 0.02 µM?
Response: y

Prompt: Please let me know if Cc1cc(-c2ccn3nc(NC(=O)C4CC4)cc3c2)c(O[C@H]2CCNC2)cn1 [Example 277] shows IC50 below 0.02 µM.
Response: y

Prompt: Could you please tell me whether IC50 recorded for Cc1cc(Nc2cc3cc(-c4cc(OCC(F)(F)F)ncc4OCC(C)(C)C#N)ccn3n2)nc(C)n1 [Example 659] is less than 0.02 µM?
Response: n

Prompt: Quick check: IC50 of Cc1cc(-c2ccc3nc(NC(=O)C4CC4)cn3c2)c(O[C@H]2CC[C@H](O)CC2)cn1 [Example 504] under 0.02 µM?
Response: y

Prompt: Bench note: check whether Cc1cc(-c2ccn3nc(NC(=O)C4CC4)cc3c2)c(O[C@@H]2CNC[C@@H]2F)cn1 [Example 279] shows IC50 below 0.02 µM
Response: y

Prompt: Threshold test, IC50 < 0.02 µM: CC#Cc1cc(-c2ccn3nc(Nc4cc(C)nc(C)n4)cc3c2)c(OCC(C)(C)C#N)cn1 [Example 670]
Response: n

Prompt: Dear colleague, could you confirm whether IC50 of Cc1cc(-c2ccn3nc(Nc4cc(C)nc(C)n4)cc3c2)c(OC[C@H]2C[C@H](O)C2)cn1 [Example 538] falls below 0.02 µM? Thanks.
Response: y

---

The entries below come with measured IC50 values attached.
study system: UniProt:Q9H0K1
assay notes: SIK2 Enzymatic Assay High Version 2 (High ATP)
Format: biochemical
Procedure: All steps were performed at room temperature. Compounds were pre-plated onto an assay plate using an Echo acoustic dispenser (Labcyte, E550 or E555) at 80 nL per well. […] The plate is then read on the Pherastar (BMG Labtech) using a luminescence read. […]

Record excerpt, results attached:
[
  {
    "compound": "N#Cc1cc(-c2ccn3nc(NC(=O)C4CC4)cc3c2)c(O[C@H]2CCN(Cc3ccccn3)C2)cn1 [Example 109]",
    "IC50": "116 nM"
  },
  {
    "compound": "CN1CCC(Oc2cnc(C#N)cc2-c2ccn3nc(NC(=O)C4CC4)cc3c2)C1 (single isomer, unassigned) [Example 58]",
    "IC50": "99.9 nM"
  },
  {
    "compound": "CN1CC(COc2cnc(C#N)cc2-c2ccn3nc(NC(=O)C4CC4)cc3c2)C1 [Example 32]",
    "IC50": "81.3 nM"
  },
  {
    "compound": "Cc1cc(-c2ccn3nc(Nc4ncccn4)cc3c2)c(O[C@H]2C[C@H]3COC[C@@H](C2)N3)cn1 [Example 402]",
    "IC50": "98.4 nM"
  },
  {
    "compound": "N#Cc1cc(-c2ccn3nc(NC(=O)C4CC4)cc3c2)c(OCC2CNC(=O)C2)cn1 (racemic) [Example 33]",
    "IC50": "93.1 nM"
  },
  {
    "compound": "N#Cc1cc(-c2ccn3nc(NC(=O)C4CC4)cc3c2)c(OCc2ccccc2)cn1 [Example 753]",
    "IC50": "483 nM"
  },
  {
    "compound": "N#Cc1ccc(OC[C@@H]2CNCCO2)c(-c2ccn3nc(NC(=O)C4CC4)cc3c2)c1 [Example 103]",
    "IC50": "34.5 nM"
  }
]

Turning now to a further record.
Query N#Cc1cc(-c2ccn3nc(NC(=O)C4CC4)cc3c2)c(OC[C@H]2C[C@@H](N)C2)cn1 [Example 175] yields IC50 of 8.45 nM

---

study system: SIK2 (Homo sapiens, UniProt Q9H0K1)
Sequence (Q9H0K1 whole entry, species assumed): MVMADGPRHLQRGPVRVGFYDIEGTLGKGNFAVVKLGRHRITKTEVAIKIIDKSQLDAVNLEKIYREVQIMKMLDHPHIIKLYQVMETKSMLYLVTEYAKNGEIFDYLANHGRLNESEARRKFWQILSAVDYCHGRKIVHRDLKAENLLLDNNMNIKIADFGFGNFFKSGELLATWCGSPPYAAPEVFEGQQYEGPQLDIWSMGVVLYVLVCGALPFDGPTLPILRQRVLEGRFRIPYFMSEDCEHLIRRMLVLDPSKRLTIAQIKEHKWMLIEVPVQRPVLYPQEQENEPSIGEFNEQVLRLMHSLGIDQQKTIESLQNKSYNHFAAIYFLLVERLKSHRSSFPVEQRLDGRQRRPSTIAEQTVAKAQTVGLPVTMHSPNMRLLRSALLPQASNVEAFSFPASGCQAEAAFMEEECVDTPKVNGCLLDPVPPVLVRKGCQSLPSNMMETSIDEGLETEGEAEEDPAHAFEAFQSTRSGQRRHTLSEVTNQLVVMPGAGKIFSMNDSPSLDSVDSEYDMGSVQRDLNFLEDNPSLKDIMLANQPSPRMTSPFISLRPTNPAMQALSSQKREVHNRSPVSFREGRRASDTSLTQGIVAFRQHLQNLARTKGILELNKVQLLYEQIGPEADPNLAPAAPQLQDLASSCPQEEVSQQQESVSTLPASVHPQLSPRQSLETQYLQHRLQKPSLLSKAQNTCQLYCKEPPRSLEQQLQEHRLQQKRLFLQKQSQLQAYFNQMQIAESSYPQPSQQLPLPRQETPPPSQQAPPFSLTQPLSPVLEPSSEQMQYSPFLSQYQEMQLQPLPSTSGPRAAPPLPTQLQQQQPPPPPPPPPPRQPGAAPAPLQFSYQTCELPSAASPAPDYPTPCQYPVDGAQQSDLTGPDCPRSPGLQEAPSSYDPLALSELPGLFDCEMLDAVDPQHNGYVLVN
assay notes: SIK2 Enzymatic Assay High Version 2 (High ATP)
Type: biochemical
endpoint: IC50

Consider the following illustrative entries.
[
  {
    "compound structure string": "Cc1cc(-c2ccn3nc(Nc4ccc(F)cn4)cc3c2)c(O[C@H]2C[C@H]3COC[C@@H](C2)N3)cn1",
    "study system": "SIK2 (Homo sapiens, UniProt Q9H0K1)",
    "endpoint": "IC50",
    "reported result": "< 0.847 nM"
  },
  {
    "compound structure string": "Cc1cc(-c2ccn3nc(Nc4cc(F)n(C)n4)cc3c2)c(O[C@H]2C[C@H]3COC[C@@H](C2)N3C)cn1",
    "study system": "SIK2 (Homo sapiens, UniProt Q9H0K1)",
    "endpoint": "IC50",
    "reported result": "< 0.847 nM"
  }
]

// next entry
IC50 reported for this molecule Cc1cc(-c2ccn3nc(Nc4cncnc4)cc3c2)c(O[C@H]2C[C@H]3COC[C@@H](C2)N3C)cn1 : < 0.847 nM

---

study system: SIK2 (Homo sapiens, UniProt Q9H0K1)
assay notes: SIK2 Enzymatic Assay High Version 2 (High ATP)
Assay type: biochemical
condition description: enzyme 6 nM, 6 mM ATP and 400 μM HDAC5tide (each 2× final concentration); 30 minutes pre-incubation, 2 hours; ADP-Glo Max luminescence; read-out: SIK2 high ATP IC50 (μM) (Test Example 2)
Item-by-item account of IC50
Entry rule: numbers only, all in µM.

Please review the following examples before continuing.
[
  {
    "compound": "COc1ccnc(Nc2cc3cc(-c4cc(OC(F)F)ncc4OCC(C)(C)C#N)ccn3n2)n1 [Example 698]",
    "quantity unit": "µM",
    "reported result": 0.0018
  },
  {
    "compound": "Cc1cc(-c2ccn3nc(Nc4cnccn4)cc3c2)c(OC[C@@H]2CN(C)CCO2)cn1 [Example 515]",
    "quantity unit": "µM",
    "reported result": 0.000864
  }
]

IC50 reported for this compound CC(C)(C#N)COc1cnc(OC(F)F)cc1-c1ccn2nc(Nc3ccc4c(n3)CNCC4)cc2c1 [Example 719] : 0.0216

---

study system: SIK2 (Homo sapiens, UniProt Q9H0K1)
assay notes: SIK2 Enzymatic Assay High Version 2 (High ATP)
Assay type: biochemical
pIC50: −log10 of the molar value.
Each entry below carries its reported pIC50.

// worked examples, pIC50 included
[
  {
    "compound structure string": "COc1cc(Nc2cc3cc(-c4cc(C)ncc4O[C@H]4C[C@H]5COC[C@@H](C4)N5)ccn3n2)cc(OC)c1C(=O)NC(C)C",
    "pIC50": "> 9.07"
  },
  {
    "compound structure string": "CNC(=O)c1ccc(Nc2cc3cc(-c4cc(C)ncc4O[C@H]4C[C@H]5COC[C@@H](C4)N5C(C)=O)ccn3n2)nc1",
    "pIC50": "> 9.07"
  }
]

Now let's try a different one.
Recorded result, Cc1cc(-c2ccn3nc(Nc4nn(C)cc4F)cc3c2)c(O[C@H]2C[C@H]3COC[C@@H](C2)N3C)cn1 , pIC50: > 9.07
